- Test System: Mitogen-activated protein kinase 1 (Homo sapiens) (UniProt P28482)
- Sequence (P28482 whole entry): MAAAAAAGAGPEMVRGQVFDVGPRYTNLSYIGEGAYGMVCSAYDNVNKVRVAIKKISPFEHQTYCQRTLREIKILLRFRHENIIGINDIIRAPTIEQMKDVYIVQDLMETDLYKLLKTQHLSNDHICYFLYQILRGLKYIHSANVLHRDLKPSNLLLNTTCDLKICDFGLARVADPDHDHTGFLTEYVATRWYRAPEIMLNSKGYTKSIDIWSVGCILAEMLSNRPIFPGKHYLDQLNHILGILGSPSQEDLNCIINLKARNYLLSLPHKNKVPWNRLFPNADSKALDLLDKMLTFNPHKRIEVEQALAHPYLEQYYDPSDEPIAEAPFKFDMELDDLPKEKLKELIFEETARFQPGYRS
- Condition Summary: Compound concentration 20.0 uM
- Description: Thermal Shift Assay. Domain: start/stop: M1-S360
Recorded ΔTm by entry
Field format: number, assumed °C, no unit text.

Use these answered entries as a reference point.
[[record]]
compound = "CN1CCN(c2ccc3nc(-c4c(N)c5c(F)cccc5[nH]c4=O)[nH]c3c2)CC1"
test_system = "Mitogen-activated protein kinase 1 (Homo sapiens) (UniProt P28482)"
observed_result = -0.2

[[record]]
compound = "CN1CC[C@@H](Oc2ccc(F)c(-c3nc4c(o3)C(=O)c3ccccc3C4=O)c2Cl)C1"
test_system = "Mitogen-activated protein kinase 1 (Homo sapiens) (UniProt P28482)"
observed_result = 0.24

[[record]]
compound = "CC(C)(C)OC(=O)N1CCN(C(=O)n2cc(-c3ccc(OC(F)(F)F)cc3)nn2)C(Cc2ccccc2)C1 (configuration not stated)"
test_system = "Mitogen-activated protein kinase 1 (Homo sapiens) (UniProt P28482)"
observed_result = -0.4

[[record]]
compound = "COc1cc2/c(=N/c3ccc(Br)cc3F)nc[nH]c2cc1OCC1CCN(C)CC1"
test_system = "Mitogen-activated protein kinase 1 (Homo sapiens) (UniProt P28482)"
observed_result = 0.07

[[record]]
compound = "Cc1ccc([N+](=O)[O-])cc1S(=O)(=O)N(C)C"
test_system = "Mitogen-activated protein kinase 1 (Homo sapiens) (UniProt P28482)"
observed_result = 0.1

[[record]]
compound = "CC(C)(C)c1ccc(S(=O)(=O)NCc2ccc(C(=O)Nc3cccnc3)cc2)cc1"
test_system = "Mitogen-activated protein kinase 1 (Homo sapiens) (UniProt P28482)"
observed_result = 0.7


Give me measured ΔTm, please, for this compound: O=C(c1cc(Cc2n[nH]c(=O)c3ccccc23)ccc1F)N1CCn2nc(C(F)(F)F)nc2C1
0.61

Return ΔTm (reported value) for this compound: Cn1c(NCCN(CCO)CCCc2ccc([N+](=O)[O-])cc2)cc(=O)n(C)c1=O
0.09

State its ΔTm: Cn1cc(NC(=O)c2cc(F)cc(F)c2)c(C(=O)NC2CCNCC2)n1
-0.35

Read the entry CCc1ccccc1NC(=O)CSC(=O)NNC(=O)[C@H](Cc1c[nH]c2ccccc12)NC(=O)OC(C)(C)C and write its reported ΔTm.
-10.2

Item Cc1ncsc1-c1ccc([C@H](C)NC(=O)[C@@H]2C[C@@H](O)CN2C(=O)[C@@H](NC(=O)CNC(=O)c2ccc(F)c(-c3ccc(N4C[C@@H](C)N(C)[C@@H](C)C4)c(NC(=O)c4c[nH]c(=O)cc4C(F)(F)F)c3)c2)C(C)(C)C)cc1 : provide ΔTm
-15.7

Complete the entry with ΔTm for CCn1c(=S)[nH]c2cc3c(NCc4ccccc4N4CCC(CO)CC4)ncnc3cc21
0.17
